- Tested On: human SSTR2 (Homo sapiens)
- Construct: expressed in transfected cells; host or cells: CHO-K1 cells and CCL39 cells
- Sequence (P30874 whole entry): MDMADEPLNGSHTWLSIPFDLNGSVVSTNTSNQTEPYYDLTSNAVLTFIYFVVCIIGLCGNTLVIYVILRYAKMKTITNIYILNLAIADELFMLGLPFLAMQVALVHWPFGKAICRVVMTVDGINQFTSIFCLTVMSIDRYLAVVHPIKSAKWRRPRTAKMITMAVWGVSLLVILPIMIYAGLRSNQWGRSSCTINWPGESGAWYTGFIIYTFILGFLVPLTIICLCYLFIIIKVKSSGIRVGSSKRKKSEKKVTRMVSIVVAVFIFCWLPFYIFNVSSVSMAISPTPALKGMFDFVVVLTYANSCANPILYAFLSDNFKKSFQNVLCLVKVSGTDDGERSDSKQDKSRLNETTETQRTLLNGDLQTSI
- Procedure Details: Displacement of 125I-[Leu8,D-Trp22,Tyr25]-SRIF-28 from cloned SSTR2 (receptor autoradiography)
- Format: binding
- Assay Setup: read-out: IC50 (nM) mSSTR2
Where a SMILES comes first, the peptide text is derived from it. Bridges are numbered along the chain shown (N, C = ends). [ ]: non-standard residue; d: D form. NMePhe(4-CH2NHiPr) = CN[C@@H](Cc1ccc(CNC(C)C)cc1)C(=O)O; Phe(4-CH2NHiPr) = CC(C)NCc1ccc(C[C@H](N)C(=O)O)cc1; Tyr(3-I) = N[C@@H](Cc1ccc(O)c(I)c1)C(=O)O; d2Nal = N[C@H](Cc1ccc2ccccc2c1)C(=O)O
Catalogue of molecules with associated IC50

Worked cases, IC50 given:
CC(C)NCc1ccc(C[C@@H]2NC(=O)[C@@H](Cc3c[nH]c4ccccc34)NC(=O)[C@H](Cc3ccccc3)NC(=O)[C@H](Cc3ccccc3)NC(=O)[C@H](CCCCN)NC(=O)[C@@H](N)CSSC[C@@H](C(=O)O)NC(=O)[C@H](CO)NC(=O)[C@H]([C@@H](C)O)NC(=O)[C@H](Cc3ccc(O)c(I)c3)NC(=O)[C@H]([C@@H](C)O)NC2=O)cc1 [Peptide No. 2B] (H-CKFF[dW][Phe(4-CH2NHiPr)]T[Tyr(3-I)]TSC-OH; disulfide 1-11)    > 10000 nM
CC(C)NCc1ccc(C[C@H]2C(=O)N[C@@H]([C@@H](C)O)C(=O)N[C@@H](Cc3ccccc3)C(=O)N[C@@H]([C@@H](C)O)C(=O)N[C@@H](CO)C(=O)N[C@H](C(=O)O)CSSC[C@H](N)C(=O)N[C@@H](CCCCN)C(=O)N[C@@H](Cc3ccccc3)C(=O)N[C@@H](Cc3ccccc3)C(=O)N[C@H](Cc3ccc4ccccc4c3)C(=O)N2C)cc1 [Peptide No. 15] (H-CKFF[d2Nal][NMePhe(4-CH2NHiPr)]TFTSC-OH; disulfide 1-11)    > 1000 nM

From here, focus on the item given below.
Fill in: IC50 on human SSTR2 (Homo sapiens), entry CC(C)NCc1ccc(C[C@H]2C(=O)N[C@@H]([C@@H](C)O)C(=O)N[C@@H](Cc3ccccc3)C(=O)N[C@@H]([C@@H](C)O)C(=O)N[C@@H](CO)C(=O)N[C@H](C(=O)O)CSSC[C@H](N)C(=O)N[C@@H](CCCCN)C(=O)N[C@@H](Cc3ccccc3)C(=O)N[C@@H](Cc3ccccc3)C(=O)N[C@H](Cc3c[nH]c4ccccc34)C(=O)N2C)cc1 [Peptide No. 13] (H-CKFF[dW][NMePhe(4-CH2NHiPr)]TFTSC-OH; disulfide 1-11)
> 10000 nM
